The measured values listed here are drawn from patent US20050043341A1.

study-target: CETP activity in the serum (Homo sapiens)
Construct: determination of its basal CETP activity in the serum; from tissue; host or cells: serum of transgenic hCETP mice
Sequence (P11597 18-493): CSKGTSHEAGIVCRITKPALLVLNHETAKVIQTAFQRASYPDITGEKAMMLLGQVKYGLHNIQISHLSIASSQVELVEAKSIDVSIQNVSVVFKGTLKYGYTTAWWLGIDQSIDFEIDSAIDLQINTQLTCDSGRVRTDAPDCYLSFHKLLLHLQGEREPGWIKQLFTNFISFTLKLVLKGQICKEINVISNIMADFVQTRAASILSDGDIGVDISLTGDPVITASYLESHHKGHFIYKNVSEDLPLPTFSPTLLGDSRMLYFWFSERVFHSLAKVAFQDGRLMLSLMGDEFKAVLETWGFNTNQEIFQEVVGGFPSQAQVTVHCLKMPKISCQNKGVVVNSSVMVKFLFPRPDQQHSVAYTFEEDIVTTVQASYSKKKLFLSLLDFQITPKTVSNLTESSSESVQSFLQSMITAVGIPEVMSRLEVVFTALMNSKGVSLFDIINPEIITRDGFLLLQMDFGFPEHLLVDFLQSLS
protocol-description: Ex vivo activities on transgenic hCETP mice (serum CETP activity after oral administration)
reported-conditions: mouse, 6 h after administration, cholesteryl ester transport in serum, read-out: % inhibition at 30 mg/kg, 6 h
observable: inhibition at 30 mg/kg (%)

cpd-smiles	inhibition at 30 mg/kg [%]
CC(C)c1nc2c(c(-c3ccccc3)c1[C@@H](O)c1ccc(C(F)(F)F)cc1)[C@@H](O)CC1(CCC1)C2	44
O[C@@H](c1ccc(C(F)(F)F)cc1)c1c(C2CCCC2)nc2c(c1-c1cccs1)[C@@H](O)CC1(CCC1)C2	40
CC(C)c1nc2c(c(C3CCCCC3)c1[C@@H](O)c1ccc(C(F)(F)F)cc1)[C@@H](O)CC1(CCC1)C2	28

A. CC(C)c1nc2c(c(-c3cccs3)c1[C@@H](O)c1ccc(C(F)(F)F)cc1)[C@@H](O)CC1(CCC1)C2
B. CC(C)c1nc2c(c(-c3ccc(F)cc3)c1[C@@H](O)c1ccc(C(F)(F)F)cc1)[C@@H](O)CC1(CCC1)C2
## Task Given the two records A and B , choose the one whose inhibition at 30 mg/kg value is lower. In your reply, give the label of the chosen option.
## Result A
